- experimental.system: CYP2C9 (Homo sapiens)
- experiment.description: Inhibition of CYP2C9 (unknown origin) using diclofenac substrate at 2.5 uM
- Type: ADME
- recorded.conditions: probe diclofenac
endpoint.name: inhibition at 2.5 µM

-- ask Fill in the blank: the reported inhibition at 2.5 µM of Cn1c(=O)n(Cc2ccc(C(=O)O)cc2)c(=O)c2cc(C#CCc3ccccc3)ccc21 is ____.
-- reply < 50%

====

- experimental.system: CYP1A2 (Homo sapiens)
- experiment.description: Inhibition of CYP1A2 (unknown origin) using tacrin substrate at 20 uM
- Format: ADME
- recorded.conditions: probe tacrin
endpoint.name: inhibition at 20 µM (%)
Numeric answer only, unit % assumed.

-- ask Fill in the blank: the reported inhibition at 20 µM of COC(=O)c1ccc(CSc2nc3c(c(=O)[nH]2)CCC3)cc1 is ____.
-- reply 29

====

Here the recorded IC50 is given for each entry.
- experimental.system: UniProt P20813
- Sequence (P20813 whole entry): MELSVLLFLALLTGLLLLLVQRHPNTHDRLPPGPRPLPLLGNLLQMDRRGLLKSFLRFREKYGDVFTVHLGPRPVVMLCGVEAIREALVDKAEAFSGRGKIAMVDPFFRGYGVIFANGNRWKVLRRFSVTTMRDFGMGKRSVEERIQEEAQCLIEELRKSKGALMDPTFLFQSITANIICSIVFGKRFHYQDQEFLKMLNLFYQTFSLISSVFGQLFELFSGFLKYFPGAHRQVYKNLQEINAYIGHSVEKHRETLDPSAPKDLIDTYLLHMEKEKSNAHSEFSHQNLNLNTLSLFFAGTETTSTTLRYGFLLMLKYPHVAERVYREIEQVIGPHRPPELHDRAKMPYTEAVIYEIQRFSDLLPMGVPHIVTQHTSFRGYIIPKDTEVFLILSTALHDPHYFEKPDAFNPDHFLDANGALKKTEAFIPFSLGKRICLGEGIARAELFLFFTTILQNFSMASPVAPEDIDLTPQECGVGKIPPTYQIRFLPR

Use the examples below as a reference point.
-- ask Fill in the blank: the reported IC50 of Cn1c(=O)n(Cc2ccc(C(=O)O)cc2)c(=O)c2cc(C#CCc3ccccc3)ccc21 is ____.
-- reply > 2.5 µM

-- ask Fill in the blank: the reported IC50 of Oc1nc(SCc2ccc(Cl)cc2)nc2c1CCC2 is ____.
-- reply > 20 µM

-- ask Fill in the blank: the reported IC50 of COC(=O)c1ccc(CSc2nc3c(c(=O)[nH]2)CCC3)cc1 is ____.
-- reply > 20 µM

-- ask Fill in the blank: the reported IC50 of Cc1cc(CNC(=O)c2cc(C(=O)NCc3ccc(F)c(C)c3)ncn2)ccc1F is ____.
-- reply > 20 µM

Kindly consider the entry below.
-- ask Fill in the blank: the reported IC50 of Cc1ccc(CSc2nc3c(c(=O)[nH]2)CCC3)cc1 is ____.
-- reply > 20 µM

====

- experimental.system: Cytochrome P450 2C19 (Homo sapiens)
- Sequence (P33261 whole entry): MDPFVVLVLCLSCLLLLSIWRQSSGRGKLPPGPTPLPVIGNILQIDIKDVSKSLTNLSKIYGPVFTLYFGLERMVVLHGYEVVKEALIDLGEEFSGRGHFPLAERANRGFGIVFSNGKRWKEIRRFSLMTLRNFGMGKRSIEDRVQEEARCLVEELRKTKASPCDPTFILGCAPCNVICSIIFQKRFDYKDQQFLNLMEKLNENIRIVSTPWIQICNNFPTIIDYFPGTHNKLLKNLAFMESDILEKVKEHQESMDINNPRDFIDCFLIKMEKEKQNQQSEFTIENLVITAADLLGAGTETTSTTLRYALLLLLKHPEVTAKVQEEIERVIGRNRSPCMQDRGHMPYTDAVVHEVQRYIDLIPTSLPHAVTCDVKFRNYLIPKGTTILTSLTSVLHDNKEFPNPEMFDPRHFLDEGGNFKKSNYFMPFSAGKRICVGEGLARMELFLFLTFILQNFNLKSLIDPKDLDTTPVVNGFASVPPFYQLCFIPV
- experiment.description: Inhibition of CYP2C19 (unknown origin) using (S)-mephentoin substrate at 20 uM
- Assay type: ADME
- recorded.conditions: 20 µM
endpoint.name: inhibition (INH)

-- ask Fill in the blank: the reported inhibition (INH) of Cc1cc(CNC(=O)c2cc(C(=O)NCc3ccc(F)c(C)c3)ncn2)ccc1F is ____.
-- reply > 10%

====

- experimental.system: CYP2C19 (Homo sapiens, UniProt P33261)
- Sequence (P33261 whole entry): as above
- experiment.description: Inhibition of CYP2C19 (unknown origin) using (S)-mephentoin substrate at 20 uM
- Type: ADME
- recorded.conditions: probe (S)-mephentoin
endpoint.name: inhibition at 20 µM

-- ask Fill in the blank: the reported inhibition at 20 µM of COC(=O)c1ccc(CSc2nc3c(c(=O)[nH]2)CCC3)cc1 is ____.
-- reply < 50%

====

- experimental.system: Cytochrome P450 2D6 (Homo sapiens, UniProt P10635)
- Sequence (P10635 whole entry): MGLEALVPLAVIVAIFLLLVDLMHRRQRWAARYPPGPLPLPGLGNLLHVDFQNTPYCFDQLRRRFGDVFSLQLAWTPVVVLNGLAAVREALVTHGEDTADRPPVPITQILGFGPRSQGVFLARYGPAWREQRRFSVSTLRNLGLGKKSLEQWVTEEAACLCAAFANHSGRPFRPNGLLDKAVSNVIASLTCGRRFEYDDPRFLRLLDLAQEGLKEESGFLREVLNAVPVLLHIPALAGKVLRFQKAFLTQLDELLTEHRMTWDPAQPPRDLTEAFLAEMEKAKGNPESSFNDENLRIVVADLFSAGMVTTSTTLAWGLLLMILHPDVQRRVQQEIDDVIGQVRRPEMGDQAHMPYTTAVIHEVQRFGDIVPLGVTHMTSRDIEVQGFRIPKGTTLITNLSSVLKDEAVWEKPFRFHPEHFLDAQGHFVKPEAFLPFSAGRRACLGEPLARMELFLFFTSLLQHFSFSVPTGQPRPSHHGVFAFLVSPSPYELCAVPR
- experiment.description: Inhibition of CYP2D6 (unknown origin) using dextromethophan substrate at 20 uM
- Type: ADME
- recorded.conditions: 20 µM
endpoint.name: inhibition (INH)

-- ask Fill in the blank: the reported inhibition (INH) of Cc1cc(CNC(=O)c2cc(C(=O)NCc3ccc(F)c(C)c3)ncn2)ccc1F is ____.
-- reply > 10%

====

- experimental.system: CYP3A4 (Homo sapiens)
- Sequence (P08684 whole entry): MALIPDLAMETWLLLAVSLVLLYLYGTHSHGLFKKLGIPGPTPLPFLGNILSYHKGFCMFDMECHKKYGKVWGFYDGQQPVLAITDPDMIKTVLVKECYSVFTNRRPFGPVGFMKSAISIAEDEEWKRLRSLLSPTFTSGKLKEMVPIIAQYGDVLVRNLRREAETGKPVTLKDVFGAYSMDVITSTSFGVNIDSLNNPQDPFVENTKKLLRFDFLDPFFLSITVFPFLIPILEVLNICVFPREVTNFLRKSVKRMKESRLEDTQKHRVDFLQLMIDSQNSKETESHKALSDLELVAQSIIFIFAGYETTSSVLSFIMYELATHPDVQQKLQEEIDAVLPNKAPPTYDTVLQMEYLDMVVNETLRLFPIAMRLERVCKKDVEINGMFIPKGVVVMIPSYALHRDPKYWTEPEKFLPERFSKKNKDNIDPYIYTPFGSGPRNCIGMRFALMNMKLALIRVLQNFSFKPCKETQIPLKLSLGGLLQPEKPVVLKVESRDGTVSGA
- experiment.description: Inhibition of CYP3A4 (unknown origin) using midazolam substrate at 2.5 uM
- Type: ADME
- recorded.conditions: probe midazolam
endpoint.name: inhibition at 2.5 µM

-- ask Fill in the blank: the reported inhibition at 2.5 µM of Cn1c(=O)n(Cc2ccc(C(=O)O)cc2)c(=O)c2cc(C#CCc3ccccc3)ccc21 is ____.
-- reply < 50%

====

- experimental.system: Cytochrome P450 2C8 (Homo sapiens, UniProt P10632)
- Sequence (P10632 whole entry): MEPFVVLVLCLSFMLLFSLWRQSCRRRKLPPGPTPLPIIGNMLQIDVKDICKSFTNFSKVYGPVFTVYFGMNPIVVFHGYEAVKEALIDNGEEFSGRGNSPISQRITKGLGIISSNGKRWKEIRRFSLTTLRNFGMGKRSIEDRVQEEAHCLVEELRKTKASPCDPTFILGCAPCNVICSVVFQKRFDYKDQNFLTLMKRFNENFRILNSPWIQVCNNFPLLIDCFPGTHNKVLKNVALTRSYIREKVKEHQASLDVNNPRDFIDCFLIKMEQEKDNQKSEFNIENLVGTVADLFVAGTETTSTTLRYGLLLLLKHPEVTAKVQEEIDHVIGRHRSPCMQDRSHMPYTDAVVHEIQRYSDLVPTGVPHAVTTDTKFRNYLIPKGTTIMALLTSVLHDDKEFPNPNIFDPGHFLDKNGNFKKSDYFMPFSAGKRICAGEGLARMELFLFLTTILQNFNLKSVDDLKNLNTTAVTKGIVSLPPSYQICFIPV
- experiment.description: Inhibition of CYP2C8 (unknown origin) using amodiaquine substrate at 20 uM
- Format: ADME
- recorded.conditions: 20 µM
endpoint.name: inhibition (INH)

-- ask Fill in the blank: the reported inhibition (INH) of Cc1cc(CNC(=O)c2cc(C(=O)NCc3ccc(F)c(C)c3)ncn2)ccc1F is ____.
-- reply > 10%

====

- experimental.system: CYP2B6 (Homo sapiens, UniProt P20813)
- experiment.description: Inhibition of CYP2B6 (unknown origin) using bupropion substrate at 2.5 uM
- Format: ADME
- recorded.conditions: probe bupropion
endpoint.name: inhibition at 2.5 µM

-- ask Fill in the blank: the reported inhibition at 2.5 µM of Cn1c(=O)n(Cc2ccc(C(=O)O)cc2)c(=O)c2cc(C#CCc3ccccc3)ccc21 is ____.
-- reply < 50%

====

- experimental.system: Cytochrome P450 1A2 (Homo sapiens, UniProt P05177)
- Sequence (P05177 whole entry): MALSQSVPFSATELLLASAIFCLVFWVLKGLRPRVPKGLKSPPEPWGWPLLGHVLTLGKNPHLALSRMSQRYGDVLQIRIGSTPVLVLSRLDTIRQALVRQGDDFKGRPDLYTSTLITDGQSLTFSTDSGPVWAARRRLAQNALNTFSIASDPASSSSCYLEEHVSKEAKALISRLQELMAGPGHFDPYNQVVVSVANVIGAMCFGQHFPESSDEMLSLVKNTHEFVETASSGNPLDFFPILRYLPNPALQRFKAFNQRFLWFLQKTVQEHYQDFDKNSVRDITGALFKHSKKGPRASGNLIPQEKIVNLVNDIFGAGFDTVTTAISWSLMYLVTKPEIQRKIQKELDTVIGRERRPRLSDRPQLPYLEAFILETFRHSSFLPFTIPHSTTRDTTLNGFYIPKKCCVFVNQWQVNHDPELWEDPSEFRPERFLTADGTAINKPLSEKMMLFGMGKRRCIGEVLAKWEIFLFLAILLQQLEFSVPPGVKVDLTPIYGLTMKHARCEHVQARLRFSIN
endpoint.name: IC50 (µM)
Numeric answer only, unit µM assumed.

-- ask Fill in the blank: the reported IC50 of Cc1ccc(CSc2nc3c(c(=O)[nH]2)CCC3)cc1 is ____.
-- reply 3.7

-- ask Fill in the blank: the reported IC50 of Oc1nc(SCc2ccc(Cl)cc2)nc2c1CCC2 is ____.
-- reply 8.6

====

- experimental.system: CYP2D6 (Homo sapiens)
- Sequence (P10635 whole entry): as the sequence (P10635 whole entry) above
- experiment.description: Inhibition of CYP2D6 (unknown origin) using dextromethophan substrate at 2.5 uM
- Format: ADME
- recorded.conditions: probe dextromethophan
endpoint.name: inhibition at 2.5 µM

-- ask Fill in the blank: the reported inhibition at 2.5 µM of Cn1c(=O)n(Cc2ccc(C(=O)O)cc2)c(=O)c2cc(C#CCc3ccccc3)ccc21 is ____.
-- reply < 50%

====

Here the recorded IC50 is given for each entry.
- experimental.system: Cytochrome P450 2D6 (Homo sapiens, UniProt P10635)
- experiment.description: Inhibition of CYP2D6 (unknown origin) using dextromethophan substrate
- Type: ADME

Use the examples below as a reference point.
-- ask Fill in the blank: the reported IC50 of COC(=O)c1ccc(CSc2nc3c(c(=O)[nH]2)CCC3)cc1 is ____.
-- reply > 20 µM

-- ask Fill in the blank: the reported IC50 of Oc1nc(SCc2ccc(Cl)cc2)nc2c1CCC2 is ____.
-- reply > 20 µM

-- ask Fill in the blank: the reported IC50 of Cc1ccc(CSc2nc3c(c(=O)[nH]2)CCC3)cc1 is ____.
-- reply > 20 µM

-- ask Fill in the blank: the reported IC50 of Cn1c(=O)n(Cc2ccc(C(=O)O)cc2)c(=O)c2cc(C#CCc3ccccc3)ccc21 is ____.
-- reply > 2.5 µM

New cases:
-- ask Fill in the blank: the reported IC50 of Cc1cc(CNC(=O)c2cc(C(=O)NCc3ccc(F)c(C)c3)ncn2)ccc1F is ____.
-- reply > 20 µM
